biological target: Human GPR120 short form (Homo sapiens, UniProt Q5NUL3); construct: expressed in transfected cells; test: Human GPR120 calcium flux assay, Procedure Calcium A; assay type: cell-based; settings: HEK-293 cells expressing human GPR120 short form, 2500 cells/well, FLIPR
measurementLabel: EC50 (nM)

The cases that follow already have their EC50 on record.
[[record]]
compound = "Cc1c(CCC(=O)O)ccc(OCc2c(Br)ccn2-c2ccc(Cl)cc2)c1C [Compound 14]"
reportedmeasurement = 2890

[[record]]
compound = "Cc1c(CCCO)ccc(OCc2c(Cl)ccn2-c2ccc(Cl)cc2)c1C [Compound 7]"
reportedmeasurement = 1730

[[record]]
compound = "Cc1c(CCC(=O)O)ccc(OCc2cccn2-c2ccc(Cl)cc2)c1C [Compound 1]"
reportedmeasurement = 353


[P] CCc1ccc(-n2ccc(C(F)(F)F)c2COc2c(F)cc(CCCO)cc2F)cc1 [Compound 33]
[Q] O=C(O)CCc1cc(F)c(OCc2c(C(F)(F)F)ccn2-c2ccc(Br)cc2)c(F)c1 [Compound 22]
Larger number for EC50: P , or Q ? API: response body contains the label of the selected item.
Q
(Q: 1520 nM, P: 434 nM)

----------
Molecular target: Human GPR120 short form (Homo sapiens, UniProt Q5NUL3)
Construct: expressed in transfected cells
Sequence (Q5NUL3 1-361): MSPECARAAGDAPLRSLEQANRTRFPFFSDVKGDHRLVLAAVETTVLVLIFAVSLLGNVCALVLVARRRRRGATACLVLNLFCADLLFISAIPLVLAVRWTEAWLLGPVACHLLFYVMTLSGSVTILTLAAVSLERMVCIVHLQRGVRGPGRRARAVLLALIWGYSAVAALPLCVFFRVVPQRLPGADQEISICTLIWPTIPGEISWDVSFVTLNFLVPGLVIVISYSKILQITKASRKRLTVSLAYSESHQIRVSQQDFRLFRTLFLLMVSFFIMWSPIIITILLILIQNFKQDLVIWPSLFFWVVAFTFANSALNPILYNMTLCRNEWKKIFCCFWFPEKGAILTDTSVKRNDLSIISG
Assay: Human GPR120 calcium flux assay, Procedure Calcium B
Type: cell-based
Conditions: HEK-293 cells expressing human GPR120 short form, 4200 cells/well, FLIPR
measurementLabel: EC50 (µM)

Before answering, review these 8 worked examples.
[[record]]
molecule = "Cc1c(CCC(=O)O)ccc(OCc2c(C(F)(F)F)ccn2-c2ccc(F)cc2F)c1C"
reportedmeasurement = 0.266

[[record]]
molecule = "Cc1ccc(-n2ccc(C(F)(F)F)c2COc2ccc(CCC(=O)O)c(C)c2C)c(F)c1"
reportedmeasurement = 0.21

[[record]]
molecule = "O=C(O)CCc1ccc(OCc2c(C(F)(F)F)ccn2-c2ccc(F)cc2)cc1Cl"
reportedmeasurement = 0.923

[[record]]
molecule = "CCc1ccc(-n2ccc(C(F)(F)F)c2COc2ccc(CCCO)c(F)c2F)cc1"
reportedmeasurement = 0.247

[[record]]
molecule = "Cc1c(CCCO)ccc(OCc2c(C(F)(F)F)ccn2-c2ccccc2)c1C"
reportedmeasurement = 0.261

[[record]]
molecule = "OCCCc1ccc(OCc2c(C(F)(F)F)ccn2-c2ccc(Br)cc2)c(F)c1F"
reportedmeasurement = 0.282

[[record]]
molecule = "COc1ccc(-n2ccc(C(F)(F)F)c2COc2c(F)cc(CCCO)cc2F)cn1"
reportedmeasurement = 0.071

[[record]]
molecule = "Cc1c(CCC(=O)O)ccc(OCc2c(C(F)(F)F)ccn2-c2ccc(Br)cc2)c1C"
reportedmeasurement = 0.199


[1] CCc1ccc(-n2ccc(C(F)(F)F)c2COc2c(F)cc(CCCO)cc2F)cc1
[2] Cc1c(CCC(=O)O)ccc(OCc2c(C(F)(F)F)ccn2-c2ccc(Cl)cc2F)c1C
Name the one with the greater EC50 value, either 1 or 2 as given. Your answer should be the label attached to the chosen record.
2

[I] Cc1ccc(-n2ccc(C(F)(F)F)c2COc2ccc(CCC(=O)O)c(C)c2C)cc1
[II] OCCCc1cc(F)c(OCc2c(C(F)(F)F)ccn2-c2ccc(Cl)cc2)c(F)c1
// which entry has the larger EC50 value, I or II ? State your choice using its label.
I
(I: 0.063 µM, II: 0.043 µM)

[A] COc1ccc(-n2ccc(C(F)(F)F)c2COc2ccc(CCCO)c(C)c2C)cc1
[B] O=C(O)CCc1cc(F)c(OCc2c(C(F)(F)C(F)(F)F)ccn2-c2ccc(Cl)cc2)c(F)c1
Of A and B , which shows the smaller EC50 value? Selection: enter the item's label.
A
(A: 0.413 µM, B: 1.15 µM)

[a] Cc1ccc(-n2ccc(C(F)(F)F)c2COc2ccc(CCC(=O)O)c(F)c2F)cc1
[b] Cc1c(CCC(=O)O)ccc(OCc2cccn2-c2ccc(Br)cc2)c1C
[c] N#Cc1ccn(-c2ccc(Cl)cc2)c1COc1ccc(CCC(=O)O)c(F)c1F
[d] Cc1ccc(-n2ccc(C(F)(F)F)c2COc2ccc(CCC(=O)O)c(C)c2C)cc1F
Rank order required: EC50, descending. Your answer should be the labels, listed in the requested order.
c, d, b, a
(c: 1.36 µM, d: 0.315 µM, b: 0.164 µM, a: 0.084 µM)
